Entries and their measured CFU (×10^8 ± SEM), Compound (10 μM) follow.
System: Staphylococcus aureus
Assay: Assessment of bactericidal activity (HUVEC media)
Format: cell-based
Conditions: 1.2 × 10^8 CFU S. aureus, 1 h in HUVEC media; 10 μM
measured_attribute: CFU (×10^8 ± SEM), Compound (10 μM)

compound: COc1ccc(C2=NN(c3ccc(S(N)(=O)=O)cc3)C(c3ccc(Cl)cc3)C2)cc1 (centres unmarked)
measured_attribute: CFU (×10^8 ± SEM), Compound (10 μM)
value_observed: 3.8 ± 0.8 ×10^8 CFU

compound: COCCOc1ccc(C2=NN(c3ccc(S(N)(=O)=O)cc3)C(c3ccc(Cl)cc3)C2)cc1 (centres unmarked)
measured_attribute: CFU (×10^8 ± SEM), Compound (10 μM)
value_observed: 10.0 ± 0.2 ×10^8 CFU

compound: NS(=O)(=O)c1ccc(N2N=C(c3ccccc3)CC2c2ccc3c(c2)OCO3)cc1 (centres unmarked)
measured_attribute: CFU (×10^8 ± SEM), Compound (10 μM)
value_observed: 8.0 ± 1.7 ×10^8 CFU

compound: COc1ccc(C2CC(c3ccccc3)=NN2c2ccc(S(N)(=O)=O)cc2)cc1 (centres unmarked)
measured_attribute: CFU (×10^8 ± SEM), Compound (10 μM)
value_observed: 8.8 ± 2.9 ×10^8 CFU

compound: COc1ccc(C2=NN(c3ccc(S(N)(=O)=O)cc3)C(c3ccc(OC)c(OC)c3)C2)cc1 (centres unmarked)
measured_attribute: CFU (×10^8 ± SEM), Compound (10 μM)
value_observed: 8.9 ± 1.9 ×10^8 CFU

compound: COc1ccc(C2C3Cc4ccccc4C3=NN2c2ccc(S(N)(=O)=O)cc2)cc1 (centres unmarked)
measured_attribute: CFU (×10^8 ± SEM), Compound (10 μM)
value_observed: 15.0 ± 1.1 ×10^8 CFU

compound: COc1ccc(C2C(C)C(c3ccccc3)=NN2c2ccc(S(N)(=O)=O)cc2)cc1 (centres unmarked)
measured_attribute: CFU (×10^8 ± SEM), Compound (10 μM)
value_observed: 9.4 ± 1.0 ×10^8 CFU

compound: COc1ccc(C2CC(c3ccccc3)=NN2c2ccc(S(N)(=O)=O)cc2)cc1OC (centres unmarked)
measured_attribute: CFU (×10^8 ± SEM), Compound (10 μM)
value_observed: 10.1 ± 1.0 ×10^8 CFU

compound: COc1ccc(C2(C)CC(c3ccccc3)=NN2c2ccc(S(N)(=O)=O)cc2)cc1 (centres unmarked)
measured_attribute: CFU (×10^8 ± SEM), Compound (10 μM)
value_observed: 0.8 ± 1.1 ×10^8 CFU

compound: COc1ccc(C2=NN(c3ccc(S(N)(=O)=O)cc3)C(c3ccc4c(c3)OCO4)C2)cc1 (centres unmarked)
measured_attribute: CFU (×10^8 ± SEM), Compound (10 μM)
value_observed: 4.9 ± 1.6 ×10^8 CFU

compound: COc1ccc(C2=NN(c3ccc(S(N)(=O)=O)cc3)C(c3ccccc3)C2)cc1 (centres unmarked)
measured_attribute: CFU (×10^8 ± SEM), Compound (10 μM)
value_observed: 11.5 ± 1.1 ×10^8 CFU
